IC50 values by entry
Molecular target: UniProtKB P26663
Assay: Assay for HCV RNA-dependent RNA polymerase activity (SPA, [3H]-GTP incorporation)
Format: biochemical
Details: read-out: Δ21 Activity (IC50 μM); 50 nM NS5B (Δ21), class symbols

Worked cases, IC50 given:
Lookup: Item O=C(Cn1nc(C(=O)NC2CC2)cc1C(=O)N[C@H]1CCCC[C@@H]1OCc1ccccc1)N[C@H]1CCCC[C@@H]1OCc1ccccc1 [Compound 122] has what recorded IC50?
Found: 0.1 to 1 µM

Lookup: Item O=C(Cn1nc(C(=O)N2c3ccccc3CCc3ccccc32)cc1C(=O)N[C@H]1CCCC[C@@H]1OCc1ccccc1)N[C@H]1CCCC[C@@H]1OCc1ccccc1 [Compound 119] has what recorded IC50?
Found: 0.1 to 1 µM

Lookup: Item O=C(Cn1nc(C(=O)NCc2ccccc2)cc1C(=O)N[C@H]1CCCC[C@@H]1OCc1ccccc1)N[C@H]1CCCC[C@@H]1OCc1ccccc1 [Compound 50] has what recorded IC50?
Found: 0.1 to 1 µM

Lookup: Item O=C(Cn1nc(C(=O)O)nc1C(=O)Nc1ccccc1OCc1ccccc1)N[C@H]1CCCC[C@@H]1OCc1ccccc1 [Compound 62] has what recorded IC50?
Found: 0.1 to 1 µM

Lookup: Item COc1ccc(OC)c(S(=O)(=O)Nc2cc(C(=O)N[C@H]3CCCC[C@@H]3OCc3ccccc3)n(CC(=O)N[C@H]3CCCC[C@@H]3OCc3ccccc3)n2)c1 [Compound 97] has what recorded IC50?
Found: 0.1 to 1 µM

***
Lookup: Item CCOC(=O)c1cc(C(=O)N[C@H]2CCCC[C@@H]2OCc2ccccc2)n(CS(=O)(=O)N[C@H]2CCCC[C@@H]2OCc2ccccc2)n1 [Compound 152] has what recorded IC50?
Found: 0.1 to 1 µM

---

Molecular target: HCV RNA-dependent RNA polymerase NS5B (Δ21) (Hepatitis C virus genotype 1b, UniProt P26663)
Sequence (P26663 2420-2989, stated change not applied): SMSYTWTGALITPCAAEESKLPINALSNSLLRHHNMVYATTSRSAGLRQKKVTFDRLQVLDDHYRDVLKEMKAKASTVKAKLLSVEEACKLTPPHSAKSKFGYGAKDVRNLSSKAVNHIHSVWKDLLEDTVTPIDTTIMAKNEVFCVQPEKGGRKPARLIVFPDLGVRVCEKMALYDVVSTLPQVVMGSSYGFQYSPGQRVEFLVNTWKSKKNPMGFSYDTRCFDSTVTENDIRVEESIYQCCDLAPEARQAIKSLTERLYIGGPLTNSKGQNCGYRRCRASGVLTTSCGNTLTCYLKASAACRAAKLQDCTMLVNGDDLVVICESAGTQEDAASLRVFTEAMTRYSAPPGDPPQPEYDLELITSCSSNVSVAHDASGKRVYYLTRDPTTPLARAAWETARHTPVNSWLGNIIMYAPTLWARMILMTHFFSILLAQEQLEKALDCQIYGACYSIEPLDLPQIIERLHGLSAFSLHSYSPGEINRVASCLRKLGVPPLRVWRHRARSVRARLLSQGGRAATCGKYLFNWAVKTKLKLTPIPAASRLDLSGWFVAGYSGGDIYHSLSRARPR
Assay: Assay for HCV RNA-dependent RNA polymerase activity (SPA, [3H]-GTP incorporation)
Assay type: biochemical
Details: read-out: Δ21 Activity (IC50 μM); 50 nM NS5B (Δ21), class symbols
endpoint.name: IC50

Lookup: Item Cc1ccc(OCC2CCCCC2)c(NC(=O)c2cc(C(=O)Nc3nnn[nH]3)nn2CC(=O)N[C@H]2CCCC[C@@H]2OCc2ccccc2)c1 [Compound 125] has what recorded IC50?
Found: 0.1 to 1 µM

Lookup: Item O=C(Cn1nc(C(=O)NCCCCCC(=O)ON2C(=O)CCC2=O)cc1C(=O)N[C@H]1CCCC[C@@H]1OCc1ccccc1)N[C@H]1CCCC[C@@H]1OCc1ccccc1 [Compound 151] has what recorded IC50?
Found: 0.1 to 1 µM

Lookup: Item O=C(Cn1nc(NC(=O)NC2CCCCC2)cc1C(=O)N[C@H]1CCCC[C@@H]1OCc1ccccc1)N[C@H]1CCCC[C@@H]1OCc1ccccc1 [Compound 118] has what recorded IC50?
Found: 0.1 to 1 µM

Lookup: Item CC(C)(C)OC(=O)c1cc(C(=O)N[C@H]2CCCC[C@@H]2OCc2ccccc2)n(CC(=O)N[C@H]2CCCC[C@@H]2OCc2ccccc2)n1 [Compound 65] has what recorded IC50?
Found: 0.1 to 1 µM

Lookup: Item O=C(Cn1nc(NC(=O)C(F)(F)F)cc1C(=O)N[C@H]1CCCC[C@@H]1OCc1ccccc1)N[C@H]1CCCC[C@@H]1OCc1ccccc1 [Compound 75] has what recorded IC50?
Found: 0.1 to 1 µM

***
Lookup: Item CN(Cc1cccc2ccccc12)C(=O)c1cc(C(=O)N[C@H]2CCCC[C@@H]2OCc2ccccc2)n(CC(=O)N[C@H]2CCCC[C@@H]2OCc2ccccc2)n1 [Compound 130] has what recorded IC50?
Found: 0.1 to 1 µM

---

IC50 values by entry
Molecular target: HCV RNA-dependent RNA polymerase NS5B (Δ21) (Hepatitis C virus genotype 1b, UniProt P26663)
Assay: Assay for HCV RNA-dependent RNA polymerase activity (SPA, [3H]-GTP incorporation)
Format: biochemical
Details: read-out: Δ21 Activity (IC50 μM); 50 nM NS5B (Δ21), class symbols

Lookup: Item CC(=O)Nc1ccc(S(=O)(=O)Nc2cc(C(=O)N[C@H]3CCCC[C@@H]3OCc3ccccc3)n(CC(=O)N[C@H]3CCCC[C@@H]3OCc3ccccc3)n2)cc1 [Compound 82] has what recorded IC50?
Found: 0.1 to 1 µM

***
Lookup: Item CCOC(=O)c1cc(C(=O)N[C@H]2CCCC[C@@H]2OCc2ccccc2)n(CC(=O)Nc2ccccc2Oc2ccc(Cl)c(C)c2)n1 [Compound 136] has what recorded IC50?
Found: 0.1 to 1 µM

Lookup: Item O=C(Cn1nc(C(=O)N2CCOCC2)cc1C(=O)N[C@H]1CCCC[C@@H]1OCc1ccccc1)N[C@H]1CCCC[C@@H]1OCc1ccccc1 [Compound 150] has what recorded IC50?
Found: 0.1 to 1 µM

---

IC50 values by entry
Target: HCV RNA-dependent RNA polymerase NS5B (Δ21) (Hepatitis C virus genotype 1b, UniProt P26663)
Experiment: Assay for HCV RNA-dependent RNA polymerase activity (SPA, [3H]-GTP incorporation)
Format: biochemical
Settings: Δ21 Activity (IC50 μM), 50 nM NS5B (Δ21), class symbols

Worked cases, IC50 given:
Lookup: Item CCOCCN(CCOCC)C(=O)c1cc(C(=O)N[C@H]2CCCC[C@@H]2OCc2ccccc2)n(CC(=O)N[C@H]2CCCC[C@@H]2OCc2ccccc2)n1 has what recorded IC50?
Found: > 1 µM

Lookup: Item O=C(Cn1nc(C(=O)O)cc1C(=O)Nc1ccc(F)cc1OCC1CCCCC1)N[C@H]1CCCC[C@@H]1OCc1ccccc1 [Compound 10] has what recorded IC50?
Found: < 0.05 µM

***
Lookup: Item O=C(Cn1nc(NS(=O)(=O)c2ccc(I)cc2)cc1C(=O)N[C@H]1CCCC[C@@H]1OCc1ccccc1)N[C@H]1CCCC[C@@H]1OCc1ccccc1 has what recorded IC50?
Found: 0.05 to 0.1 µM

Lookup: Item CCOC(=O)c1cc(C(=O)N[C@H]2CCCC[C@@H]2OCc2ccccc2)n(CC(=O)Nc2ccc3c(c2)OCO3)n1 has what recorded IC50?
Found: > 1 µM

Lookup: Item O=C(Cn1nc(C(=O)O)cc1C(=O)Nc1ccccc1OCc1ccccc1)N[C@H]1CCCC[C@@H]1OCc1ccccc1 has what recorded IC50?
Found: 0.05 to 0.1 µM

Lookup: Item Cc1ccc(OCC2CCCCC2)c(NC(=O)c2cc(C(=O)O)nn2CC(=O)N[C@H]2CCCC[C@@H]2OCc2ccccc2)c1 has what recorded IC50?
Found: < 0.05 µM

Lookup: Item CCOC(=O)c1cc(C(=O)N[C@H]2CCCC[C@@H]2OCc2ccccc2)n(CC(=O)Nc2cc(C)ccc2OCC2CCC2)n1 has what recorded IC50?
Found: > 1 µM

Lookup: Item O=C(Cn1nc(NS(=O)(=O)C(F)(F)F)cc1C(=O)N[C@H]1CCCC[C@@H]1OCc1ccccc1)N[C@H]1CCCC[C@@H]1OCc1ccccc1 has what recorded IC50?
Found: 0.05 to 0.1 µM

---

Molecular target: HCV RNA-dependent RNA polymerase NS5B (Δ21) (Hepatitis C virus genotype 1b, UniProt P26663)
Assay: Assay for HCV RNA-dependent RNA polymerase activity (SPA, [3H]-GTP incorporation)
Format: biochemical
Details: Δ21 Activity (IC50 μM), 50 nM NS5B (Δ21), class symbols
endpoint.name: IC50

Worked cases, IC50 given:
Lookup: Item O=C(Cn1nc(-c2nnn[nH]2)cc1C(=O)N[C@H]1CCCC[C@@H]1OCc1ccccc1)N[C@H]1CCCC[C@@H]1OCc1ccccc1 (stereo in doubt) has what recorded IC50?
Found: 0.05 to 0.1 µM

Lookup: Item CCOC(=O)c1cc(C(=O)Nc2cc(C)ccc2OCn2nc(C)cc2C)n(CC(=O)N[C@H]2CCCC[C@@H]2OCc2ccccc2)n1 has what recorded IC50?
Found: > 1 µM

Lookup: Item O=C(Cn1nc(C(=O)O)cc1C(=O)Nc1cc(Cl)ccc1OCC1CCCCC1)N[C@H]1CCCC[C@@H]1OCc1ccccc1 has what recorded IC50?
Found: < 0.05 µM

Lookup: Item O=C(Cn1nc(C(=O)Cc2ccccc2)cc1C(=O)N[C@H]1CCCC[C@@H]1OCc1ccccc1)N[C@H]1CCCC[C@@H]1OCc1ccccc1 has what recorded IC50?
Found: > 1 µM

Lookup: Item O=C(Cn1nc(NS(=O)(=O)c2cccc(Br)c2)cc1C(=O)N[C@H]1CCCC[C@@H]1OCc1ccccc1)N[C@H]1CCCC[C@@H]1OCc1ccccc1 has what recorded IC50?
Found: 0.05 to 0.1 µM

***
Lookup: Item O=Cc1cc(C(=O)N[C@H]2CCCC[C@@H]2OCc2ccccc2)n(CC(=O)N[C@H]2CCCC[C@@H]2OCc2ccccc2)n1 has what recorded IC50?
Found: > 1 µM

Lookup: Item Nc1cc(C(=O)N[C@H]2CCCC[C@@H]2OCc2ccccc2)n(CC(=O)NC2CCCC[C@@H]2OCc2ccccc2)n1 (stereo partly drawn) has what recorded IC50?
Found: > 1 µM

Lookup: Item O=C(Cn1nc(C(=O)NCCCN2CCCC2=O)cc1C(=O)N[C@H]1CCCC[C@@H]1OCc1ccccc1)N[C@H]1CCCC[C@@H]1OCc1ccccc1 has what recorded IC50?
Found: > 1 µM

From: patent US7425640B2
